Assay: method code SF-AS, from DOI: 10.1080/09553007214550551, PMID: 4537457
Below, each of the molecules is paired with its reported logP value.
Test Readout: logP

           smiles_str  observed
0   CC(=O)c1ccc(C)cc1      2.28
1  COc1ccc(C(C)=O)cc1      1.82

###

Test: method code SF-AS, from DOI: 10.1248/cpb.32.5003, PMID: 6534549
Below, each of the compounds is paired with its reported logP value.
Test Readout: logP

>>> print(df.to_string())
                            smiles_str  test_readout  observed
0            COc1ccccc1NC(=O)Cc1ccccc1          logP      2.68
1  O=C(Cc1ccccc1)Nc1ccccc1[N+](=O)[O-]          logP      2.73
2             Nc1ccccc1NC(=O)Cc1ccccc1          logP      1.45

###

Test: method code SF, from DOI: 10.1023/a:1012119527214, PMID: 9453056
Settings: pH 12.5
Test Readout: logD

In [3]: df
Out[3]:
                          smiles_str  observed
0  CCN(CC)CC(=O)NCC(=O)Nc1c(C)cccc1C       2.2
1           Cc1cccc(C)c1NC(=O)CN(C)C      1.23

###

Experiment: method code SF-GLC, from DOI: 10.1039/an9709500763, PMID: 5449617
Test Readout: logP

                           smiles_str  observed
0  COP(=O)(OC)Oc1ccc([N+](=O)[O-])cc1      1.33

###

Assay: method code SF, from DOI: 10.1021/ac00105a018
Test Readout: logP

In [3]: df
Out[3]:
       smiles_str  observed
0  CCCc1ccc(O)cc1         3

###

Below, each of the compounds is paired with its reported logD value.
Experiment: method code SF-AS, from DOI: 10.1002/qsar.19830020405
Conditions: pH 2.0
Test Readout: logD

                                   compound  observed
0         Cc1ccc(C(=O)c2ccc(CC(=O)O)n2C)cc1      2.79
1  CC(C(=O)O)c1cccc(C(=O)c2ccccc2)c1 (configuration not stated)      3.12

###

Assay: method code SF-AS, from DOI: 10.1016/0045-6535(84)90003-1
Below, each of the compounds is paired with its reported logP value.
Test Readout: logP

            smiles_str  test_readout  observed
0  Oc1c(Cl)ccc(Cl)c1Cl          logP      3.77
1  Oc1ccc(Cl)c(Cl)c1Cl          logP       3.8

###

Test Readout: logP

In [3]: df
Out[3]:
                         smiles_str  observed
0  Nc1nc(N)c2nc(-c3ccccc3)c(N)nc2n1      1.24

###

Test Readout: logP

In [3]: df
Out[3]:
        smiles_str  observed
0  Cc1ccc2ccccc2n1      2.59
1      CNc1ccccc1C      2.16
2   Cc1ccccc1N(C)C      2.81

###

Experiment: method code SF-HPLC, from Peips, M.; Sikk, P.; Aaviksaar, A. (1986). Hydrophobic interaction in the active sites of serine proteases from thermoactinomycetes. Org. React., 23(3)261-271.
Details: pH 2.2
Test Readout: logD

                                   compound  test_readout  observed
0         COC(=O)[C@H](Cc1ccc(O)cc1)NC(C)=O          logD      0.33
1  CCCCC(NC(C)=O)C(=O)O (stereo unspecified)          logD      0.33
2               COC(=O)[C@H](CC(C)C)NC(C)=O          logD      0.84
3                    COC(=O)[C@H](C)NC(C)=O          logD     -0.57
4  CCC(NC(C)=O)C(=O)OC (stereo unspecified)          logD     -0.17
5  CCCCCCC(NC(C)=O)C(=O)OC (stereo unspecified)          logD       1.7

###

Experiment: method code SF, from DOI: 10.1016/s0968-0896(00)00025-0, PMID: 10882003
Conditions: pH 7.4
Test Readout: logD

          smiles_str  observed
0  O=c1cccc(Cl)[nH]1      0.78

###

Assay: method code SF-AS, from DOI: 10.1093/ajhp/38.9.1308, PMID: 7282713
Test Readout: logP

>>> df
         smiles_str  observed
0  NNc1nncc2ccccc12         1

###

Assay: method code SF, from DOI: 10.1016/s0960-894x(00)80094-3
Conditions: pH 7.4
Test Readout: logD

                             molecule  test_readout  observed
0  NC1CCN(O)C1=O (stereo unspecified)          logD     -3.52

###

Test Readout: logP

>>> df
                     smiles_str  test_readout  observed
0  CCC1(CC(C)C)C(=O)NC(=O)NC1=O          logP      1.69

###

Assay: method code SF, from DOI: 10.1016/j.bmcl.2013.12.011, PMID: 24342238
Test Readout: logP

In [3]: df
Out[3]:
                                 smiles_str  test_readout  observed
0  COc1cc(C=CC(O)=CC(=O)C=Cc2ccc(O)c(N(C)C)c2)ccc1O          logP      3.65

###

Assay: method code SF, from DOI: 10.1023/a:1016286026462, PMID: 8570535
Criterion: logP strictly less than 5. Met: fulfilled. Not met: not fulfilled.

>>> print(df.to_string())
                           smiles_str    label_class
0  CC(C)c1ccc(C(=O)CC(=O)c2ccccc2)cc1  not fulfilled
1        COc1ccc(C(=O)c2ccccc2)c(O)c1      fulfilled
2        CCCCOC(=O)c1ccccc1C(=O)OCCCC      fulfilled
3       CCCCCCCCOC(=O)c1ccc(N(C)C)cc1  not fulfilled
4   COc1cc(C(C)(C)C)c(O)c(C(C)(C)C)c1      fulfilled

###

Below, each of the compounds is paired with its reported logP value.
Test Readout: logP

In [3]: df
Out[3]:
                                   compound  observed
0  CC(O)c1cc(Cl)c(Nc2nc3ccncc3c3c(=O)[nH]ccc23)c(Cl)c1 (centres undefined)       1.2
1  O=c1[nH]ccc2c(Nc3c(F)cc(F)cc3Cl)nc3ccncc3c12      1.75
2  O=c1[nH]ccc2c(Nc3c(Cl)cc(C(O)C(F)F)cc3Cl)nc3ccncc3c12 (centres undefined)      1.46
3  O=c1[nH]ccc2c(Nc3c(Cl)cc(C4=NNCC4)cc3Cl)nc3ccncc3c12      1.43

###

Experiment: method code SF-GLC, from DOI: 10.1021/es00131a005
Test Readout: logP

>>> df
             smiles_str  observed
0  Clc1ccc(Cl)c(Cl)c1Cl       4.6

###

Below, each of the compounds is paired with its reported logP value.
Test Readout: logP

>>> print(df.to_string())
                               smiles_str  observed
0      C(=Cc1cccnc1)c1ccc(C=Cc2cccnc2)cc1      3.73
1      COc1cc(C=Cc2cccnc2)ccc1C=Cc1cccnc1      4.32
2  C(=C\c1ccc(/C=C/c2ccncc2)cc1)/c1ccncc1      3.93

###

Assay: method code SF, from DOI: 10.1016/j.bmcl.2006.04.097, PMID: 16714112
Below, each of the compounds is paired with its reported logP value.
Test Readout: logP

                     smiles_str  test_readout  observed
0  O=[N+]([O-])c1ccccc1C1=NCCO1          logP      1.27
1          Fc1cccc(F)c1C1=NCCO1          logP      1.45
2         Fc1cccc(Cl)c1C1=NCCO1          logP      1.89

###

Test: method code SF-AS, from DOI: 10.1016/s0022-3565(25)38749-5, PMID: 8182532
Conditions: pH 7.4
Test Readout: logD

>>> df
                                 smiles_str  observed
0  O=S1(=O)c2cccc3cccc(c23)N1CCCN1CCN(c2ccc(F)cc2)CC1       3.6
